Biological target: UniProt:C7C422
Assay: Enzyme activity: IC50 in fluorescence assay with cephalosporin substrate FC5
Assay type: biochemical
Details: 50 pM NDM-1, 1.5 μM FC5, 10 min pre-incubation
Protocol: The Class B beta-lactamases activities were measured in the presence of the test inhibitors in a fluorescence assay against an in-house synthesized fluorescent cephalosporin substrate FC5 (Berkel, et. al. J. Med. Chem. 2013, 56(17), 6945). […] The test inhibitors were incubated with the MBL enzyme for 10 min at room temperature, followed by addition the substrate and the fluorescence was recorded immediately (λex 380 nm, λem 460 nm) on a microplate reader. […]
List of log10(IC50) values.
Readout: log10(IC50) (log10 of the value in µM)

- Compound: "O=C(O)c1[nH]c2c(c1-c1cncc(F)c1)CCc1ccccc1-2"
  Experimental system: "UniProt:C7C422"
  log10(IC50): -0.48
- Compound: "O=C(O)c1[nH]c2c(c1-c1ccccc1F)CCc1ccccc1-2"
  Experimental system: "UniProt:C7C422"
  log10(IC50): -0.59
- Compound: "O=C(O)c1[nH]c2c(c1-c1cncc(Cl)c1)CCc1ccccc1-2"
  Experimental system: "UniProt:C7C422"
  log10(IC50): -1.12
- Compound: "COc1ccc(Cl)cc1-c1c(C(=O)O)[nH]c2c1CCc1ccccc1-2"
  Experimental system: "UniProt:C7C422"
  log10(IC50): -1.59
- Compound: "COc1ccccc1-c1c(C(=O)O)[nH]c2c1CCc1ccccc1-2"
  Experimental system: "UniProt:C7C422"
  log10(IC50): -0.61
- Compound: "CC1Cc2c([nH]c(C(=O)O)c2-c2cc(F)cc(Cl)c2)-c2ccccc21 (stereo not drawn)"
  Experimental system: "UniProt:C7C422"
  log10(IC50): 0.15
- Compound: "O=C(O)c1[nH]c2c(c1-c1ccncc1)CCc1ccccc1-2"
  Experimental system: "UniProt:C7C422"
  log10(IC50): -0.22
- Compound: "O=C(O)c1[nH]c2c(c1-c1ccc(F)c(F)c1)CCc1ccccc1-2"
  Experimental system: "UniProt:C7C422"
  log10(IC50): -0.47
- Compound: "Cc1ccc(-c2c(C(=O)O)[nH]c3c2CCc2ccccc2-3)c(F)c1"
  Experimental system: "UniProt:C7C422"
  log10(IC50): -0.50

----------
Biological target: NDM-1 (Klebsiella pneumoniae)
Sequence (C7C422 29-270, looked up): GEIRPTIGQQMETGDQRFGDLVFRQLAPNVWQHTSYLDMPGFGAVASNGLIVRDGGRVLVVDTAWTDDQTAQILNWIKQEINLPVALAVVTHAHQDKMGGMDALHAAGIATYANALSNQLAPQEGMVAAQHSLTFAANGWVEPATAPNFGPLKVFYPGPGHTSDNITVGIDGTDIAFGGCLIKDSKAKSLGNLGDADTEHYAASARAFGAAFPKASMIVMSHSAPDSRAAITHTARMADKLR
Assay: Enzyme activity: IC50 in fluorescence assay with cephalosporin substrate FC5
Type: biochemical
Settings: 50 pM NDM-1, 1.5 μM FC5, 10 min pre-incubation
In plain terms, low IC50, meaning strictly below 2 µM, gives Met, and everything else gives Not met.

- Sample smiles: "O=C(O)c1[nH]c2c(c1-c1ccccc1)CCc1ccccc1-2"
  Assigned category: "Not met"
- Sample smiles: "CC(C)(C)c1ccc(-c2c(C(=O)O)[nH]c3c2CCc2ccccc2-3)cc1"
  Assigned category: "Met"
- Sample smiles: "O=C(O)c1[nH]c2c(c1-c1cccc(Cl)c1)CCc1ccccc1-2"
  Assigned category: "Met"
- Sample smiles: "COc1ccc(-c2c(C(=O)O)[nH]c3c2CCc2ccccc2-3)cc1"
  Assigned category: "Not met"
- Sample smiles: "O=C(O)c1[nH]c2c(c1-c1ccc(Cl)cc1Cl)CCc1ccccc1-2"
  Assigned category: "Met"
- Sample smiles: "O=C(O)c1[nH]c2c(c1-c1cccc(Cl)c1Cl)CCc1ccccc1-2"
  Assigned category: "Met"
- Sample smiles: "COc1cc(Cl)cc(-c2c(C(=O)O)[nH]c3c2CCc2ccccc2-3)c1"
  Assigned category: "Met"
- Sample smiles: "O=C(O)c1[nH]c2c(c1-c1cccc(F)c1F)CCc1ccccc1-2"
  Assigned category: "Met"
- Sample smiles: "Cc1cc(Cl)cc(-c2c(C(=O)O)[nH]c3c2CCc2ccccc2-3)c1"
  Assigned category: "Met"

----------
List of IC50 values.
Biological target: IMP-1 (Serratia marcescens)
Sequence (P52699 19-246, looked up, species assumed): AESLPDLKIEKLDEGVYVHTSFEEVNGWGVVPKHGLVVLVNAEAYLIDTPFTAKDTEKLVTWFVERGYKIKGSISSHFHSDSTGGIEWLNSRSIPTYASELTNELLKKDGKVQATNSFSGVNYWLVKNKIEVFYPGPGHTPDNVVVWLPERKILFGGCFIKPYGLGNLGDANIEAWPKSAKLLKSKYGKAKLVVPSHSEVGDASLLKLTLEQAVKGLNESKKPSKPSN
Assay: Enzyme activity: IC50 in fluorescence assay with cephalosporin substrate FC5
Type: biochemical
Settings: 100 pM IMP-1, 10 μM FC5, 10 min pre-incubation

- Molecule: "Cc1cc(C)cc(-c2c(C(=O)O)[nH]c3c2CCc2ccccc2-3)c1 [Example 48]"
  Measurement unit: "µM"
  IC50: 0.695
- Molecule: "COc1cc(Cl)cc(-c2c(C(=O)O)[nH]c3c2CCc2ccccc2-3)c1 [Example 59]"
  Measurement unit: "µM"
  IC50: 0.552
- Molecule: "O=C(O)c1[nH]c2c(c1-c1cc(Cl)c(Cl)c(Cl)c1)CCc1ccccc1-2 [Example 60]"
  Measurement unit: "µM"
  IC50: 1.56
- Molecule: "O=C(O)c1[nH]c2c(c1-c1cccc(F)c1)CCc1ccccc1-2 [Example 42]"
  Measurement unit: "µM"
  IC50: 1.15
- Molecule: "CC1Cc2c([nH]c(C(=O)O)c2-c2cc(F)cc(Cl)c2)-c2ccccc21 (stereo not drawn) [Example 64]"
  Measurement unit: "µM"
  IC50: 0.821
- Molecule: "O=C(O)c1[nH]c2c(c1-c1ccc(Cl)cc1Cl)CCc1ccccc1-2 [Example 46]"
  Measurement unit: "µM"
  IC50: 10.4
- Molecule: "O=C(O)c1[nH]c2c(c1-c1cc(F)cc(F)c1)CCc1ccccc1-2 [Example 52]"
  Measurement unit: "µM"
  IC50: 4.87
- Molecule: "COc1ccc(Cl)cc1-c1c(C(=O)O)[nH]c2c1CCc1ccccc1-2 [Example 38]"
  Measurement unit: "µM"
  IC50: 0.026
- Molecule: "O=C(O)c1[nH]c2c(c1-c1cccc(Cl)c1Cl)CCc1ccccc1-2 [Example 50]"
  Measurement unit: "µM"
  IC50: 25

----------
Tested on: Klebsiella pneumoniae ATCC BAA-2146
Test: Checkerboard synergy assay in combination with Imipenem
Assay type: cell-based
Settings: compound at 8 μg/mL; K. pneumoniae ATCC BAA-2146
Excerpt: The strain included in the study was Klebsiella pneumoniae ATCC BAA-2146 (Himedia®, India) with presence of New Delhi metallo-β-lactamase (NDM-1) gene. The quality control reference strains Escherichia coli ATCC 25922 and Pseudomonas aeruginosa ATCC 27853 were procured from Himedia®, India. The fold modulation activity of test compounds, in combination with Imipenem or Meropenem, was checked against Klebsiella pneumoniae ATCC BAA-2146 strain by the broth-microdilution checkerboard synergy assay. […]
List of Fold reduction in Imipenem MIC in the presence of compounds (μg/mL) 8 values.
Readout: Fold reduction in Imipenem MIC in the presence of compounds (μg/mL) 8 (fold)

- Sample smiles: "COc1ccc(F)cc1-c1c(C(=O)O)[nH]c2c1CCc1ccccc1-2"
  Reported: 8
- Sample smiles: "COc1cc(Cl)cc(-c2c(C(=O)O)[nH]c3c2CCc2ccccc2-3)c1"
  Reported: 4
- Sample smiles: "CC(C)(C)c1ccc(-c2c(C(=O)O)[nH]c3c2CCc2ccccc2-3)cc1"
  Reported: 4
- Sample smiles: "O=C(O)c1[nH]c2c(c1-c1cncc(F)c1)CCc1ccccc1-2"
  Reported: 4
- Sample smiles: "O=C(O)c1[nH]c2c(c1-c1cccc(Cl)c1Cl)CCc1ccccc1-2"
  Reported: 2
- Sample smiles: "COc1cc(F)cc(-c2c(C(=O)O)[nH]c3c2CCc2ccccc2-3)c1"
  Reported: 4
- Sample smiles: "O=C(O)c1[nH]c2c(c1-c1cncc(Cl)c1)CCc1ccccc1-2"
  Reported: 4
- Sample smiles: "COc1cc(OC)cc(-c2c(C(=O)O)[nH]c3c2CCc2ccccc2-3)c1"
  Reported: 8
- Sample smiles: "O=C(O)c1[nH]c2c(c1-c1ccc(F)c(F)c1)CCc1ccccc1-2"
  Reported: 2

----------
Tested on: Klebsiella pneumoniae ATCC BAA-2146
Assay: Checkerboard synergy assay in combination with Imipenem
Format: cell-based
Details: compound at 8 μg/mL; K. pneumoniae ATCC BAA-2146
Readout: Fold reduction in Imipenem MIC in the presence of compounds (μg/mL) 8 (fold)

- Compound: "O=C(O)c1[nH]c2c(c1-c1ccccc1)CCc1ccccc1-2"
  Experimental system: "Klebsiella pneumoniae ATCC BAA-2146"
  Reported: 4
- Compound: "O=C(O)c1[nH]c2c(c1-c1ccc(Cl)cc1Cl)CCc1ccccc1-2"
  Experimental system: "Klebsiella pneumoniae ATCC BAA-2146"
  Reported: 4
- Compound: "O=C(O)c1[nH]c2c(c1-c1cc(F)cc(Cl)c1)CCc1ccccc1-2"
  Experimental system: "Klebsiella pneumoniae ATCC BAA-2146"
  Reported: 8
- Compound: "COc1ccc(Cl)cc1-c1c(C(=O)O)[nH]c2c1CCc1ccccc1-2"
  Experimental system: "Klebsiella pneumoniae ATCC BAA-2146"
  Reported: 4
- Compound: "O=C(O)c1[nH]c2c(c1-c1cccc(Cl)c1)CCc1ccccc1-2"
  Experimental system: "Klebsiella pneumoniae ATCC BAA-2146"
  Reported: 4
- Compound: "COc1ccc(-c2c(C(=O)O)[nH]c3c2CCc2ccccc2-3)cc1"
  Experimental system: "Klebsiella pneumoniae ATCC BAA-2146"
  Reported: 2
- Compound: "O=C(O)c1[nH]c2c(c1-c1ccncc1)CCc1ccccc1-2"
  Experimental system: "Klebsiella pneumoniae ATCC BAA-2146"
  Reported: 4
- Compound: "CC1Cc2c([nH]c(C(=O)O)c2-c2cc(F)cc(Cl)c2)-c2ccccc21 (stereo not drawn)"
  Experimental system: "Klebsiella pneumoniae ATCC BAA-2146"
  Reported: 4
- Compound: "O=C(O)c1[nH]c2c(c1-c1ccc(Cl)cc1)CCc1ccccc1-2"
  Experimental system: "Klebsiella pneumoniae ATCC BAA-2146"
  Reported: 4
